test system: CCRF-CEM; assay: NCI tumour cell line growth inhibition, 48 h
Calls of active or inactive are those of the source. Cut-off read from the data, not from the text of the source: active = GI50 up to about 1.1 µM and inactive = higher.
I'd be grateful if you could share measured GI50 for these entries.

Lookup: Form field: reported GI50 of CC(=O)NC(CCCNC(=O)N(CCCl)N=O)C(=O)NCc1ccccc1 (stereo unspecified)
Found: 46.3 µM (inactive)

Lookup: Form field: reported GI50 of O=C1CCN2CCC(=O)c3c2c(cc2ccccc32)N1
Found: > 100 µM (inactive)

Lookup: Form field: reported GI50 of CCOC(=O)/C(C#N)=C\c1ccc(N(CCC(=O)O)CCC(=O)O)c(I)c1
Found: > 10 µM (inactive)

Lookup: Form field: reported GI50 of Cc1ccc2c(c1)C(=O)/C(=C\c1ccc(Cl)cc1)CCS2(=O)=O
Found: 2 µM (inactive)

Lookup: Form field: reported GI50 of CCC1=NC(N/N=C/c2ccco2)=N/C1=C\c1ccccc1O
Found: 12.7 µM (inactive)

Lookup: Form field: reported GI50 of C[C@]12CC=CC(=O)[C@@]1(C)CCC(=O)C2
Found: > 100 µM (inactive)

Lookup: Form field: reported GI50 of O=C1CCC2(O)c3ccccc3C2Cc2ccccc21 (stereo unspecified)
Found: > 100 µM (inactive)

Lookup: Form field: reported GI50 of O=c1/c(=C/c2ccc3c(c2)OCO3)sc2nnc(-c3ccco3)n12
Found: > 100 µM (inactive)

Lookup: Form field: reported GI50 of Nc1ccc2c(SCC(=O)Nc3ccccc3-c3ccccc3NC(=O)CSc3c4ccccc4nc4cc(N)ccc34)c3ccccc3nc2c1
Found: 2.79 µM (inactive)

Lookup: Form field: reported GI50 of CC1=NCC[N+]1(CCc1ccccc1)Cc1ccccc1 (stereo unspecified)
Found: 34.5 µM (inactive)

Lookup: Form field: reported GI50 of Cc1cccc2c1Oc1cc(Cl)ccc1C2NC(=O)CCN1CCCCC1 (stereo unspecified)
Found: 16 µM (inactive)

---

tested on: SR; test: NCI tumour cell line growth inhibition, 48 h
Activity calls are given as the source filed them. Rule as the data show it: active = GI50 up to about 1.1 µM and inactive = higher.
Test Readout: GI50

Lookup: Form field: reported GI50 of Cc1cn(C2CC(O)C(CO)O2)c(=O)[nH]c1=O (stereo unspecified)
Found: > 2020 µM (inactive)

Lookup: Form field: reported GI50 of CCCCCCCCCCCCCCCc1ccc(OCC(O)CO)cc1 (stereo unspecified)
Found: > 100 µM (inactive)

Lookup: Form field: reported GI50 of NCCOCCOCC(=O)O
Found: > 100 µM (inactive)

Lookup: Form field: reported GI50 of CCOP(=O)(OCC)/C(C#N)=C/c1ccc(-c2ccc(F)cc2F)o1
Found: 15 µM (inactive)

Lookup: Form field: reported GI50 of COc1ccc2c(c1)[n+]([O-])c(C(=O)C/C(=N/OCCCc1ccccc1)C(=O)NC13CC4CC(CC(C4)C1)C3)c(C)[n+]2[O-]
Found: > 100 µM (inactive)

Lookup: Form field: reported GI50 of COC(OC)C(O)C1OC=CC1n1cnc2c(N)ncnc21 (stereo unspecified)
Found: > 100 µM (inactive)

---

system: SR; assay: NCI tumour cell line growth inhibition, 48 h
Active and inactive are the calls of the source. Rule as the data show it: active = GI50 up to about 1.1 µM and inactive = higher.
Hi! Could you answer with just one of these? yes (1) = active, no (0) = inactive

Lookup: // outcome(item) with item = CC(CCC#N)(CCC#N)C(=O)CC(O)(C(F)(F)F)C(F)(F)F
Found: no (0)

Lookup: // outcome(item) with item = C[C@H](NC1=C(Cl)C(=O)c2c(O)ccc(O)c2C1=O)C(=O)Nc1ccc([N+](=O)[O-])cc1
Found: no (0)

Lookup: // outcome(item) with item = Cc1ccc2c(c1C)C(=O)C1(C2)Cc2ccc3c(c2C1=O)CCC3 (configuration not stated)
Found: no (0)

Lookup: // outcome(item) with item = CC1(C)CC2(C)ON=C(c3ccccc3)N2c2ccccc2N1 (configuration not stated)
Found: no (0)

Lookup: // outcome(item) with item = O=Cc1ccc(OCc2cccc(COc3ccc(/C=N\Nc4ccc([N+](=O)[O-])cc4[N+](=O)[O-])cc3)n2)cc1
Found: no (0)

Lookup: // outcome(item) with item = CC1(C)[C@H](O)CC[C@]2(C)C3=CC[C@@]4(C)[C@@H]5C[C@](C)(CO)CC[C@]5(C)CC[C@]4(C)C3=CC[C@@H]12
Found: no (0)

Lookup: // outcome(item) with item = CCOC(=O)C1=C(C)N(C2OC(COC(C)=O)C(OC(C)=O)C(OC(C)=O)C2OC(C)=O)C(=O)NC1c1ccccc1 (configuration not stated)
Found: no (0)

Lookup: // outcome(item) with item = COc1cc2c(c(OC)c1OC)-c1ccc(SC)c(=O)cc1[C@@H](NCc1cccc(C#N)c1)CC2
Found: yes (1)

Lookup: // outcome(item) with item = COc1cc(-c2ccccc2N)c2cccnc2c1OC
Found: no (0)

Lookup: // outcome(item) with item = Cc1ccc(/N=C2/C(c3ccccc3)=C(SC3=C(c4ccccc4)/C(=N/c4ccc(C)cc4)c4ccccc43)c3ccccc32)cc1
Found: no (0)

Lookup: // outcome(item) with item = Cc1ccc(OCCn2cc(Nc3ccccc3)c(=O)[nH]c2=O)cc1
Found: no (0)

Lookup: // outcome(item) with item = C/C(=N\NC(=[Se])N1CCN(c2ccccn2)CC1)c1ccccn1
Found: yes (1)

---

test system: HCT-15
I'd be grateful if you could share measured GI50 for these entries.

Lookup: Form field: reported GI50 of Cc1ccc2c(c1)C(=O)/C(=C\c1ccc(Cl)cc1)CCS2(=O)=O
Found: 1.97 µM

Lookup: Form field: reported GI50 of O=C(Nc1ccc(Cl)cc1)C1C(=O)C(=O)N(c2ccc(Cl)cc2)C1=O (stereo not drawn)
Found: 35.9 µM

Lookup: Form field: reported GI50 of CC(C)=NC(C(=O)O)C(C)(C)S (stereo not drawn)
Found: > 100 µM

Lookup: Form field: reported GI50 of O=S(=O)(c1cc(Cl)ccc1Cl)N1CCN(c2cccc(Cl)c2)CC1
Found: > 100 µM

Lookup: Form field: reported GI50 of CC(=O)NC(CCCNC(=O)N(CCCl)N=O)C(=O)NCc1ccccc1 (stereo not drawn)
Found: > 100 µM

Lookup: Form field: reported GI50 of Cc1cc2c(nn1)-c1ccccc1C2=O
Found: > 10 µM

Lookup: Form field: reported GI50 of CN(C(=O)C12C3C4(C(=O)O)C1(C(=O)N(C)C(C)(C)C)C1C2(C(=O)O)C3(C(=O)N(C)C(C)(C)C)C14C(=O)N(C)C(C)(C)C)C(C)(C)C (stereo not drawn)
Found: > 100 µM

Lookup: Form field: reported GI50 of COc1ccc(C(=C[N+](=O)[O-])c2ccc(OC)cc2)cc1
Found: 8.05 µM

Lookup: Form field: reported GI50 of CCc1ccc(NCc2cc(OC)c(OC)c(OC)c2)cc1
Found: 0.164 µM

Lookup: Form field: reported GI50 of Nc1ncnc2c1nnn2C1CCC(CP(=O)(O)O)C1 (stereo not drawn)
Found: > 100 µM

Lookup: Form field: reported GI50 of C=C[C@@]1(C)CC(=O)[C@]2(O)[C@@]3(C)[C@@H](O)CCC(C)(C)[C@@H]3[C@H](O)[C@@H](OC(C)=O)[C@@]2(C)O1
Found: > 100 µM

Lookup: Form field: reported GI50 of [N-]=[N+]=Nc1cccc(-c2nnc(Cl)cc2O)c1
Found: > 100 µM

Lookup: Form field: reported GI50 of C=C1C2C[C@@H]3OC4CC5O[C@]6(CC5OC4C(C)C3OC(=O)CC3CC[C@@H]4OC5C7OC8C[C@](CCC9CC(=C)[C@H](CCC(C[C@H]1C)O2)O9)(OC7C4O3)O[C@@H]85)C[C@@H]1O[C@@]2(CC(C)[C@@H]3OC(CC(=O)CCO)C(O)C[C@@H]3O2)CC(C)[C@@H]1O6 (stereo partly drawn)
Found: < 0.001 µM

Lookup: Form field: reported GI50 of COc1ccc2c3c([nH]c2c1)[C@H](C=C(C)C)N1C(=O)[C@@H]2CCCN2C(=O)[C@@H]1C3
Found: > 100 µM

Lookup: Form field: reported GI50 of Cc1ccc(C(=O)/C=C2\Nc3cccnc3NC2=O)cc1
Found: > 100 µM

Lookup: Form field: reported GI50 of CSc1nc2c(c(O)c(C)c(=O)n2C2OCC(OC(C)=O)C(OC(C)=O)C2OC(C)=O)c(=O)n1C (stereo not drawn)
Found: > 100 µM

Lookup: Form field: reported GI50 of O=C1NC(=S)NC1C(Cc1ccccc1)c1ccco1 (stereo not drawn)
Found: > 100 µM

Lookup: Form field: reported GI50 of C/C(=C(/C)c1ccc(O)cc1)c1ccc(O)cc1
Found: 61.1 µM

---

I'd be grateful if you could share measured GI50 for these entries.
Provide only the numeric value, understood in µM.

Lookup: // fetch HCT-15 GI50 for COC1=CC(=O)c2c(O)c3c(c(O)c2C1=O)C=C(C)OC3O (centres undefined)
Found: 0.349

Lookup: // fetch HCT-15 GI50 for Cc1c(O)c(=O)ccn1CCc1ccc(O)cc1
Found: 4.82
